assay: Human HepG2 cell viability assay in 384 well format; assay type: toxicity, cell-based; parameters: dose 125 nL, time 70.5 hour; concentration not given beside the values; conditions: HepG2 cells, read-out: Inhibition
Here the recorded cytotoxicity at 70.5 h is given for each entry.
Just the number in %, nothing appended.

These recorded examples may help you get a feel for the data.
- Compound: "Clc1cccc(-c2cccc(N3CCC(NC4CCOCC4)CC3)c2)c1"
  cytotoxicity at 70.5 h [%]: 5.92
- Compound: "COc1ccc2c(c1)CC(NCc1cccc(OCC(N)=O)c1)CC2 (stereo not given)"
  cytotoxicity at 70.5 h [%]: -10.5
- Compound: "CSCCC(O)C(=O)N1CCCN(Cc2ccc(F)cc2)CC1 (stereo not given)"
  cytotoxicity at 70.5 h [%]: 8.69

**Query** Returns the measured cytotoxicity at 70.5 h for the input compound. Input: CCOc1ccnc(N2CCN(C(=O)c3ccc(C#N)cc3)CC2)n1
**Result** 2.75

**Query** Next record, please: CC(=O)N[C@@H]1CN(Cc2ccccc2C(=O)O)C[C@H]1C(C)C
**Result** 0.633

**Query** Next record, please: CC(C)(C)NC(=O)CNc1ncccn1
**Result** -8.78

**Query** Next record, please: CN(CCCN1CCCC1)[C@@H]1c2ccccc2C2(CCNCC2)[C@H]1O
**Result** 14.4

**Query** Next record, please: O=S1(=O)CCC(S(=O)(=O)c2cccc(S(=O)(=O)N3CCCCCC3)c2)C1 (stereo not given)
**Result** -10.9

**Query** Next record, please: Cc1cc(CN(C)C(=O)NCc2ccco2)no1
**Result** -2.34
